measuredOn: KRAS-G12C mutant (Homo sapiens, UniProt P01116, G12C)
testSummary: TR-FRET assay of SOS1-assisted KRAS GDP/GTP exchange
property: pIC50
Convention used: pIC50 is expressed as -log10 of the molar concentration.

Task item: Please give the documented pIC50 of C=C(F)C(=O)N1CCN(c2nc(OC[C@@]34CCCN3C[C@H](F)C4)nc3c2COC(c2cccc4cccc(Cl)c24)C3)C[C@@H]1CC#N (stereo partly drawn) [Compound 62]
Reply: 7.40

Task item: Please give the documented pIC50 of C=C(F)C(=O)N1CCN(c2nc(OCC34CCCN3CCC4)nc3c2[C@H](C)O[C@H](c2cccc4c2CCCC4)C3)C[C@@H]1CC#N [Compound 61]
Reply: 7.11

Task item: Please give the documented pIC50 of C=C(F)C(=O)N1CCN(c2nc(OCC3(CN4CCCC4)CC3)nc3c2COC(c2cccc4cccc(Cl)c24)C3)C[C@@H]1CC#N (mixture of isomers) [Compound 71]
Reply: 6.68

Task item: Please give the documented pIC50 of C=C(F)C(=O)N1CCN(c2nc(OCC3(CN(C)C)CC3)nc3c2COC(c2cccc4cccc(Cl)c24)C3)C[C@@H]1CC#N (stereo partly drawn) [Compound 70]
Reply: 6.52

Task item: Please give the documented pIC50 of C=CC(=O)N1CCN(c2nc(OC[C@@H]3CCCN3C)nc3c2CO[C@@H](c2cccc4cccc(Cl)c24)C3)C[C@@H]1CC#N [Compound 6]
Reply: 5.15

Task item: Please give the documented pIC50 of C=CC(=O)N1CCN(c2nc(OC[C@@H]3C[C@H](F)CN3C)nc3c2CO[C@@H](c2cccc4ccccc24)C3)C[C@@H]1CC#N [Compound 10]
Reply: 4.86

====

System: phospho-ERK1/2 (Thr202/Tyr204) in MIA PaCa-2 cell line
testSummary: pERK and ERK Western blot analysis, MIA PaCa-2
Format: cell-based
settings: Homo sapiens; MIA PaCa-2 cell line, 4 hours after incubation; read-out: 2D pERK IC50
pIC50: −log10 of the molar value.
property: pIC50

Task item: Please give the documented pIC50 of "C=C(F)C(=O)N1CCN(c2nc(OCC34CCCN3CCC4)nc3c2CO[C@H](c2cccc4c2CCCC4)C3)C[C@@H]1CC#N"
Reply: 7.00 to 8.00

Task item: Please give the documented pIC50 of "C=CC(=O)N1CCN(c2nc(OC[C@@H]3CCCN3C)nc3c2CO[C@@H](c2cccc4cccc(Cl)c24)C3)C[C@@H]1CC#N"
Reply: < 7.00

Task item: Please give the documented pIC50 of "C=CC(=O)N1CCN(c2nc(OC[C@@H]3C[C@H](F)CN3C)nc3c2CO[C@@H](c2cccc4ccccc24)C3)C[C@@H]1CC#N"
Reply: < 7.00

====

measuredOn: KRAS-G12C mutant (Homo sapiens, UniProt P01116, G12C)
testSummary: Gel shift assay (SDS-PAGE) for covalent modification of KRAS G12C
Type: binding
settings: 0.5 μM compound, 1 μM GDP-bound KRAS G12C, 25° C., 5 minutes, shift indicative of covalent cysteine conjugation

{"molecule": "C=C(F)C(=O)N1CCN(c2nc(OCC34CCCN3CCC4)nc3c2[C@@H](C)O[C@@H](c2cccc4cccc(C)c24)C3)C[C@@H]1CC#N", "measuredOn": "KRAS-G12C mutant (Homo sapiens, UniProt P01116, G12C)", "KRAS-G12C molecular weight shift": "No"}
{"molecule": "C=C(F)C(=O)N1CCN(c2nc(OCC34CCCN3CCC4)nc3c2COC(c2cccc4cccc(Cl)c24)C3)C[C@@H]1CC#N (stereo partly drawn)", "measuredOn": "KRAS-G12C mutant (Homo sapiens, UniProt P01116, G12C)", "KRAS-G12C molecular weight shift": "Yes"}
{"molecule": "C=C(F)C(=O)N1CCN(c2nc(OCC34CCCN3CCC4)nc3c2C(C)OC(c2cccc4cccc(Cl)c24)C3)C[C@@H]1CC#N (stereo partly drawn)", "measuredOn": "KRAS-G12C mutant (Homo sapiens, UniProt P01116, G12C)", "KRAS-G12C molecular weight shift": "Yes"}

====

measuredOn: KRAS-G12C mutant (Homo sapiens, UniProt P01116, G12C)
testSummary: Gel shift assay (SDS-PAGE) for covalent modification of KRAS G12C
Format: binding
settings: 0.5 μM compound, 1 μM GDP-bound KRAS G12C, 25° C., 5 minutes, shift indicative of covalent cysteine conjugation
Protocol: 0.5 μM compounds were incubated with 1 μM GDP-bound untagged KRAS (G12C or wild type) proteins at 25° C. for 5 minutes in 40 μl reaction buffer (50 mM Tris, pH 7.5, 100 mM NaCl, 1 mM MgCl2, 1 mM DTT). The reactions were quenched with 10 μI SDS-PAGE sample loading buffer (250 mM Tris-HCl, pH 6.8, 10% SDS, 0.5% bromophenol blue, 50% glycerol and 50 mM DTT) and then analyzed via SDS-PAGE using 4%-20% gradient polyacrylamide gel followed by Coomassie blue stain. […]
property: KRAS-G12C molecular weight shift

{"compound": "C=C(F)C(=O)N1CCN(c2nc(OC[C@@]34CCCN3C[C@H](F)C4)nc3c2COC(c2cccc4cccc(Cl)c24)C3)C[C@@H]1CC#N (stereo partly drawn)", "KRAS-G12C molecular weight shift": "Yes"}
{"compound": "C=C(F)C(=O)N1CCN(c2nc(OCC3(CN4CCCC4)CC3)nc3c2COC(c2cccc4cccc(Cl)c24)C3)C[C@@H]1CC#N (mixture of isomers)", "KRAS-G12C molecular weight shift": "Yes"}
{"compound": "C=C(F)C(=O)N1CCN(c2nc(OCC34CCCN3CCC4)nc3c2CO[C@@H](c2cccc4cccc(C)c24)C3)C[C@@H]1CC#N (single isomer, unassigned)", "KRAS-G12C molecular weight shift": "No"}
{"compound": "C=C(F)C(=O)N1CCN(c2nc(OCC34CCCN3CCC4)nc3c2COC(c2cccc4cccc(C)c24)C3)C[C@@H]1CC#N (stereo partly drawn)", "KRAS-G12C molecular weight shift": "Yes"}

Task item: Please give the documented KRAS-G12C molecular weight shift of "C=C(F)C(=O)N1CCN(c2nc(OC[C@@H]3CCCN3C)nc3c2CO[C@H](c2cccc4cccc(Cl)c24)C3)C[C@@H]1CC#N"
Reply: Yes

Task item: Please give the documented KRAS-G12C molecular weight shift of C=C(F)C(=O)N1CCN(c2nc(OCC34CCCN3CCC4)nc3c2COC(c2cccc4c2CCCC4)C3)C[C@@H]1CC#N (stereo partly drawn)
Reply: Yes

====

measuredOn: KRAS-G12C mutant (Homo sapiens, UniProt P01116, G12C)
testSummary: Gel shift assay (SDS-PAGE) for covalent modification of KRAS G12C
Type: binding
settings: 0.5 μM compound, 1 μM GDP-bound KRAS G12C, 25° C., 5 minutes, shift indicative of covalent cysteine conjugation
property: KRAS-G12C molecular weight shift

For orientation, consider the following solved cases.
{"molecule": "C=C(F)C(=O)N1CCN(c2nc(OCC3(CN4CCCC4)CC3)nc3c2CO[C@@H](c2cccc4cccc(Cl)c24)C3)C[C@@H]1CC#N (single isomer, unassigned) [Compound 72]", "recordedMeasurement": "No"}
{"molecule": "C=C(F)C(=O)N1CCN(c2nc(OCC34CCCN3CCC4)nc3c2[C@H](C)O[C@H](c2cccc4cccc(C)c24)C3)C[C@@H]1CC#N [Compound 66]", "recordedMeasurement": "Yes"}
{"molecule": "C=C(F)C(=O)N1CCN(c2nc(OCC34CCCN3CCC4)nc3c2CO[C@H](c2cccc4c2CCCC4)C3)C[C@@H]1CC#N [Compound 69]", "recordedMeasurement": "Yes"}
{"molecule": "C=C(F)C(=O)N1CCN(c2nc(OC[C@@]34CCCN3C[C@H](F)C4)nc3c2CO[C@@H](c2cccc4cccc(Cl)c24)C3)C[C@@H]1CC#N (single isomer, unassigned) [Compound 63]", "recordedMeasurement": "No"}
{"molecule": "C=C(F)C(=O)N1CCN(c2nc(OC[C@@H]3CCCN3C)nc3c2CO[C@@H](c2cccc4cccc(Cl)c24)C3)C[C@@H]1CC#N [Compound 19]", "recordedMeasurement": "No"}

Here is another molecule to look at.
Task item: Please give the documented KRAS-G12C molecular weight shift of C=C(F)C(=O)N1CCN(c2nc(OCC34CCCN3CCC4)nc3c2CO[C@@H](c2cccc4c2CCCC4)C3)C[C@@H]1CC#N [Compound 68]
Reply: No

Just for reference, patent US20220112204A1 is where these values come from.
